test system: Ps. aeruginosa GN10362; assay: Antimicrobial activity (minimum inhibitory concentration); format: cell-based; conditions: Pseudomonas aeruginosa; Ps. aeruginosa GN10362; read-out: MIC
Measure name: MIC (µg/mL)

Example results:
Complete the entry with MIC for C[C@@H](O)[C@H]1C(=O)N2C(C(=O)O)=C(S[C@@H]3CN[C@H](/C=C\c4csc5c[n+](C)cn45)C3)[C@H](C)[C@H]12 [Ex. 39]
6.25

Give the reported value of MIC for this record: C[C@@H](O)[C@H]1C(=O)N2C(C(=O)O)=C(S[C@@H]3CN[C@H](/C=C\c4csc5c[n+](CC(N)=O)cn45)C3)[C@H](C)[C@H]12 [Ex. 54]
1.56

A = C[C@@H](O)[C@H]1C(=O)N2C(C(=O)O)=C(S[C@@H]3CN[C@H](/C=C\c4cn5c[n+](CC(N)=O)cc5s4)C3)[C@H](C)[C@H]12 [Ex. 53B]
B = C[C@@H](O)[C@H]1C(=O)N2C(C(=O)O)=C(S[C@@H]3CN[C@H](C(=O)NCc4n5ccsc5c[n+]4C)C3)[C@H](C)[C@H]12 [Ex. 2]
C = C[C@@H](O)[C@H]1C(=O)N2C(C(=O)O)=C(S[C@@H]3CN[C@H](C(O)c4csc5cncn45)C3)[C@H](C)[C@H]12 (single isomer, unassigned) [Ex. 6]
D = C[C@@H](O)[C@H]1C(=O)N2C(C(=O)O)=C(S[C@@H]3CN[C@H](C(O)c4cn5c[n+](C)cc5s4)C3)[C@H](C)[C@H]12 (single isomer, unassigned) [Ex. 18]
E = C[C@@H](O)[C@H]1C(=O)N2C(C(=O)O)=C(S[C@@H]3CN[C@H](/C=C\c4csc5cncn45)C3)[C@H](C)[C@H]12 [Ex. 38]
With regard to MIC, arrange the entries in ascending order, please. Order the labels as requested and give them as your answer.
A, C, D, E, B

A = Cc1n2cc(C[C@@H]3C[C@H](SC4=C(C(=O)O)N5C(=O)[C@H]([C@@H](C)O)[C@H]5[C@H]4C)CN3)sc2c[n+]1CCC(N)=O [Ex. 67]
B = CC(=N)N1CC[C@H](SC2=C(C(=O)O)N3C(=O)[C@H]([C@@H](C)O)[C@H]3C2)C1 [Compound B, Panipenem, reference compound]
Of A and B , whose reported MIC is numerically smaller? # reply format: chosen label
A
(A: 0.78 µg/mL, B: 12.5 µg/mL)

I = C[C@@H](O)[C@H]1C(=O)N2C(C(=O)O)=C(S[C@@H]3CN[C@H](/C=C/c4cn5c[n+](CC(N)=O)cc5s4)C3)[C@H](C)[C@H]12 [Ex. 53A]
II = C[C@@H](O)[C@H]1C(=O)N2C(C(=O)[O-])=C(S[C@@H]3CN[C@H](/C=C\c4csc5c[n+](CCC(N)=O)cn45)C3)[C@H](C)[C@H]12 [Ex. 72]
Sort I and II by MIC descending and give the first. Kindly give the label for the entry you pick.
II
(II: 1.56 µg/mL, I: 0.78 µg/mL)

====

# E. coli GN206: MIC values follow
Measure name: MIC (µg/mL)

Recall the reported MIC of CC(=N)N1CC[C@H](SC2=C(C(=O)O)N3C(=O)[C@H]([C@@H](C)O)[C@H]3C2)C1 [Compound B, Panipenem, reference compound] on E. coli GN206 and write it down.
0.2

a = C[C@@H](O)[C@H]1C(=O)N2C(C(=O)O)=C(S[C@@H]3CN[C@H](C(O)c4csc5cncn45)C3)[C@H](C)[C@H]12 (single isomer, unassigned) [Ex. 6]
b = C[C@@H](O)[C@H]1C(=O)N2C(C(=O)O)=C(S[C@@H]3CN[C@H](Cc4cn5c[n+](CC(N)=O)cc5s4)C3)[C@H](C)[C@H]12 [Ex. 26]
Which entry shows the lesser value of MIC here, a or b ? Refer to your chosen entry by its label in the reply.
b

a = C[C@@H](O)[C@H]1C(=O)N2C(C(=O)O)=C(S[C@@H]3CN[C@H](C(=O)NCc4n5ccsc5c[n+]4C)C3)[C@H](C)[C@H]12 [Ex. 2]
b = C[C@@H](O)[C@H]1C(=O)N2C(C(=O)O)=C(S[C@@H]3CN[C@H](/C=C\c4csc5cncn45)C3)[C@H](C)[C@H]12 [Ex. 38]
// compare measured MIC between a and b ; output the lower one Pick one; state its label.
a
(a: 0.05 µg/mL, b: 0.1 µg/mL)

====

E. cloacae G-0008 data, read-out MIC
Measure name: MIC (µg/mL)

Give reported MIC value for C[C@@H](O)[C@H]1C(=O)N2C(C(=O)O)=C(SCCN=CN)C[C@H]12 [Compound A, Imipenem, reference compound]
0.1

a = C[C@@H](O)[C@H]1C(=O)N2C(C(=O)O)=C(S[C@@H]3CN[C@H](/C=C\c4csc5c[n+](C)cn45)C3)[C@H](C)[C@H]12
b = C[C@@H](O)[C@H]1C(=O)N2C(C(=O)O)=C(S[C@@H]3CN[C@H](C(O)c4csc5cncn45)C3)[C@H](C)[C@H]12 (single isomer, unassigned)
Field: entry with larger MIC (options a / b ). Pick one and reply with its label.
b
(b: 0.1 µg/mL, a: 0.05 µg/mL)

A = C[C@@H](O)[C@H]1C(=O)N2C(C(=O)O)=C(S[C@@H]3CN[C@H](/C=C\c4cn5c[n+](CCC(N)=O)cc5s4)C3)[C@H](C)[C@H]12
B = CC(=N)N1CC[C@H](SC2=C(C(=O)O)N3C(=O)[C@H]([C@@H](C)O)[C@H]3C2)C1 [Compound B, Panipenem, reference compound]
Hi! Which is lower in terms of MIC, the first one A or the second one B ? # answer = label of selected item
A
(A: 0.05 µg/mL, B: 0.2 µg/mL)

====

Dear all, this message contains MIC results, target or system K. pneumoniae PCI602.
Measure name: MIC (µg/mL)

Fill in MIC for record C[C@@H](O)[C@H]1C(=O)N2C(C(=O)O)=C(S[C@@H]3CN[C@H](/C=C\c4cn5c[n+](CCC(N)=O)cc5s4)C3)[C@H](C)[C@H]12 [Ex. 76]
0.1

A = C[C@@H](O)[C@H]1C(=O)N2C(C(=O)O)=C(S[C@@H]3CN[C@H](Cc4cn5c[n+](CC(N)=O)cc5s4)C3)[C@H](C)[C@H]12 [Ex. 26]
B = CC(=N)N1CC[C@H](SC2=C(C(=O)O)N3C(=O)[C@H]([C@@H](C)O)[C@H]3C2)C1 [Compound B, Panipenem, reference compound]
For this pair, A and B , which shows a numerically higher MIC? To answer, give the label that identifies your chosen option.
B
(B: 0.2 µg/mL, A: 0.1 µg/mL)

====

Test system: S. aureus M126
Assay: Antimicrobial activity (minimum inhibitory concentration)
Assay type: cell-based
Settings: Staphylococcus aureus; S. aureus M126, highly meticillin-resistant strain
Experimental: For representative compounds among the novel carbapenem derivatives of the present invention, the minimum inhibitory concentration (MIC, μg/ml) against various pathogenic bacteria was measured in accordance with a method described in CHEMOTHERAPY, Vol. 16, No. 1, 99 (1968).
Measure name: MIC (µg/mL)

Use these answered entries as a reference point.
State, in one line, measured MIC of C[C@@H](O)[C@H]1C(=O)N2C(C(=O)O)=C(S[C@@H]3CN[C@H](/C=C\c4cn5c[n+](CCC(N)=O)cc5s4)C3)[C@H](C)[C@H]12 [Ex. 76]
6.25

Consider the molecule C[C@@H](O)[C@H]1C(=O)N2C(C(=O)O)=C(S[C@@H]3CN[C@H](/C=C\c4csc5c[n+](C)cn45)C3)[C@H](C)[C@H]12 [Ex. 39] and give its recorded MIC.
6.25

Check the records and state MIC for C[C@@H](O)[C@H]1C(=O)N2C(C(=O)O)=C(S[C@@H]3CN[C@H](C(O)c4cn5c[n+](C)cc5s4)C3)[C@H](C)[C@H]12 (single isomer, unassigned) [Ex. 18]
12.5

a = C[C@@H](O)[C@H]1C(=O)N2C(C(=O)O)=C(S[C@@H]3CN[C@H](C(O)c4csc5cncn45)C3)[C@H](C)[C@H]12 (single isomer, unassigned) [Ex. 6]
b = C[C@@H](O)[C@H]1C(=O)N2C(C(=O)O)=C(S[C@@H]3CN[C@H](/C=C/c4cn5c[n+](CC(N)=O)cc5s4)C3)[C@H](C)[C@H]12 [Ex. 53A]
Pick one: a or b . Which one has the lower reported MIC? Write down the label of the entry you select.
a
(a: 6.25 µg/mL, b: 12.5 µg/mL)

P = C[C@@H](O)[C@H]1C(=O)N2C(C(=O)O)=C(S[C@@H]3CN[C@H](/C=C\c4cn5c[n+](CC(N)=O)cc5s4)C3)[C@H](C)[C@H]12 [Ex. 53B]
Q = C[C@@H](O)[C@H]1C(=O)N2C(C(=O)O)=C(S[C@@H]3CN[C@H](c4csc5c[n+](C)cn45)C3)[C@H](C)[C@H]12 [Ex. 50]
Consider P and Q . Which of these has its MIC at a higher number? Record your answer as the label of the chosen record.
Q

P = C[C@@H](O)[C@H]1C(=O)N2C(C(=O)O)=C(S[C@@H]3CN[C@H](/C=C\c4csc5cncn45)C3)[C@H](C)[C@H]12 [Ex. 38]
Q = C[C@@H](O)[C@H]1C(=O)N2C(C(=O)O)=C(S[C@@H]3CN[C@H](/C=C\c4csc5c[n+](CC(N)=O)cn45)C3)[C@H](C)[C@H]12 [Ex. 54]
Please indicate which item has the smaller measured MIC: P versus Q Let me know the label of the one you choose.
Q
